Tested on: Rat liver microsome
experiment: Liver microsomal stability assay, rat
Type: in vitro ADME
Design: key: A: the percentage of a compound remains is greater than that of its deuterium non-enriched counterpart; B: a result otherwise
test-context: 40 μM, 37° C., 30 min, 1 mg/ml microsome proteins; class relative to deuterium non-enriched counterpart
Counter-ions that a name gives are not always drawn.
endpoint-label: % of compound remained at the 30th minutes, Rat liver microsome

molecule	observed-value
Cl.[2H]C([2H])([2H])Oc1ccc(Cl)cc1NC(=O)Nc1cccc2c1CCN2C([2H])([2H])c1ccnc2[nH]ccc12	A
[2H]C([2H])(c1ccnc2[nH]ccc12)N1CCc2c(NC(=O)Nc3cc(Cl)ccc3F)cccc21 [Example 11, hydrochloride]	B
[2H]C([2H])([2H])Oc1ccc(Cl)cc1NC(=O)Nc1cccc2c1CCN2C([2H])([2H])c1ccnc(N)c1	A
[2H]C([2H])(c1ccnc2[nH]ccc12)N1CCc2c(NC(=O)Nc3cccc(C)c3)cccc21 [Example 13, hydrochloride]	A
